Target: T1, IFF05588
T1 chain: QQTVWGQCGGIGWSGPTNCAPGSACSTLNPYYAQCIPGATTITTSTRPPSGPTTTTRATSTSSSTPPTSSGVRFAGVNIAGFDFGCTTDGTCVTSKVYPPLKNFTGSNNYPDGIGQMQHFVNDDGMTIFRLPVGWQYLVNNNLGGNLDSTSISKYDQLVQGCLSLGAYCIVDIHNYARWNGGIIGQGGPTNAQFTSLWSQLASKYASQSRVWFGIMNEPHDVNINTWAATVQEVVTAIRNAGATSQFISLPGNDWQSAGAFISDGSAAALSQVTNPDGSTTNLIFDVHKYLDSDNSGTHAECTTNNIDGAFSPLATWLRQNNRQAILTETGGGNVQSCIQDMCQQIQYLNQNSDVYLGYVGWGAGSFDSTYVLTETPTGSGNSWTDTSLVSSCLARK
Returns: string. Value is Satisfied if measured Relative late peak area (centered, scaled, averaged over 5, 10 and 15 min) is below -0.7, and Not satisfied if it is greater than or equal to it.

* IFF21363 (protein) QLDKPVIDPEFPSGALDQGLNDHLRAPGSSWDAWEEGWIPEDCKNMIEGTEFSVQDITPFNIHYDDCEDPWVFCRHKDSPLSEDYIVDAFGKMPVRFRSFVRHMLFVPGTESAGSSGDNVQMNGDLPITVFIHETAHSFDGHHGLPDIEGGFSASQAWLDAYNADSAVTDDYGQTSQAENFAQQTVVALFDSNVPDGVASIQPSWQSIENQFRLIQDRAADILRPDGTCTSRLENSAPVEKGGSARLRPSASTKPDVSLKGKIKVIEPVPMGAEMEMAQYDASGKVVGTKVVKVGGRE | Not satisfied
* IFF21366 (protein) QNLNKPVLFSDGLSPHVDSVFFQHLTPTQSTWDKWGWGWIPQACLSVVQGTQFSPYDIEVYNVHYTDCASAVVMCRHNQAQMSIINMIDAFGRIPIHDRQWTQHILALPAGGCSAGTGGAVTTFYGPCYIPSVFVHELTHTLDAFVNDKTGSTGAVHVYSTTSSYLNSVNQDSCVPDGYANTSPQEDYAQTSVLALYEKVNPGGLDPIGPWRCLVNAKNNLDSIIGQELTPGGSCTHRWADSAIVCMGPAAGCTSSKRGFEGRRGLKPVGPKPNPANKKGDPLVLDLLPDLASVVNAKITDFSHLSSNHTAGIEATIRINAWNKAAGKETVPVPKA | Not satisfied
* IFF21339 (protein) NLNKPVITPNFPGNGLASLGPGLMNNLAPTHSTWDDWGAGWIPSDCKSMVQGAGFSPNDIIPFNIHYDDCAQTWTFCRHKNSPLSEIQILDIFGRLPVRMRQFVRHLVFVPGNKSAGSNGDNVLMVGDVDVTVFAHEIGHSLDSHAFDSSYGVPFSTGNVWVSNYNLDSAVPDPYAQSSQQENFAQQTVVSLYDKVVPGGIGTIQPNWQAIFHQYATLEGYIGNVIIPGGTCTHRLTDSAPVTMSGSKKSRRALGPKPKVSLSPKVKEIEAIPMESSITMTSFDEHGKPNGTYVIHL | Not satisfied
* IFF21369 (protein) QLPKPIMSPAVPFDHTDPILYQHLGSTPSTYDQWGWGWLPLRCKAVAEARGLNPYDVNVYNVHYEDCDQAWVMCRHHGAQVSLDQMIDNFGRLPVRLRNIVRHQFAVPGEGLGAYTYSDLGDIVFTGDIGHLLRFWVHEAGHAVDRNINPSQGDYSSSQAWINEYNKDGYICDEYAKNNMAENFAQEVIVALFDKVVPGGIGTIVPNWNDIFHQYATVQAVMGDMLIPGGFCNRHFADDTIVCMGPAAGCENSKRDYEGLNSTETYTAEAEEPTVCTLA | Satisfied
* IFF21362 (protein) GSPDKPEMNPAFDYGRFEAGLRDNLHPTHSTWDYWGPGWIPQSCKDIATSHGLSPNDFTIFNVHYDDCQEGWTFCRHKDAGASEIDMIDIFGRAPVHMRSFIRHLVATPGLHDGAAAFTFSNGDCVVESAPDLSVMLHEMSHSLDWHALPQYPSPFSSSNEWQSNYAQDSNTPTAYGRTNWLEDFAEAGKVGVFDKVVPGGFGSVAGNWGQVFHQYATYQGYLGDTILPGGTCDKRFPNSETVPMAGNSKRMAADLGEKPDNTIKADNMTLIQMRPEIEGQVSICEHQH | Satisfied
* IFF21335 (protein) TLDKPVIQPNFPGNGLASLGQGLLDNLAPTHSTWDDWGAGWIPQDCKTLVEGAGFSASDVIPFNIHYDDCAQTWTFCRHKDSPLSEVQILDLFGRLPVRMRSFVRHLVFIPGNKSAGSSGDNVLMTGPVDITVYAHEIGHSLDSHAFDPSYGVPFSTGNVWISNYNLDSAVTDPYAQTSQQENFAQETVVSLYDKVVPGGIGTIQSNWQAIFHQYATLEGYIGDVIIPGGTCTHRLTDSPAVPMSGSAKLRRGLGPKPHVALSPEVEEIEAIPMKSSITMTSFDEAGKPNGTYVINL | Not satisfied
* IFF21345 (protein) KLDKPIIQPNFPGGGLASLGQGLLNNLSPTQSTSDNWGAGWIPADCKSLVQGAGLSPFDVTPFNIHYTDCSQTWTFCRHKDSPLSQTDIIDLFGRVPVRMRDFIRHYVFIPGATSAGSSGDNTLMVGNVDITVFLHEIGHSLDSHAFDPSYGAPFSNSNIWISNYNLDSAVTDSYAQTSQQENFAQETVVSVYDKVVPGGIGTIQPNWQAIFHQYATLQGYIGDTIIPGGTCVNRLTDSQPVTMGNSAKFRRGLGPKPTVSLSPDVKEIKPIPMSDSITMTTFDEFGKANGTYVIHL | Not satisfied
* IFF21367 (protein) QNLNKPVLFTDGLSPHVDSVFFQHLTPTQSTWDQWGWGWIPQACLSVVQGTQFSPYDIEVYNVHYTDCASAVVMCRHNQAQMSIINMIDAFGRVPIHDRQWTQHILALPASSCSAGTGGAVTTFYGPCYIPSVFVHELTHTLDAYVNDQTGSTGSVHVYSTTSSYLNSVNQDSCVPDGYANTSPQEDYAQTSVLALYEKVNPGGLDPIGNWRCLVNAKNNLDSIIGQELTPGGSCTHRWADSAIVCMGPAAGCASSKRGFSTRRGARVAGPKPEPANKKGDPLVSNLTPDLTSAVNAKIDDFSHLVSNHTASIEATIRINAWNKAAGKKTVPVPTA | Not satisfied
